Each record here notes measured %Inh.
Test system: ACVRL1
run.conditions: concentration: 1 μM, replicates: in singlicate; n = 1;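 note: KINOMEscan kinase panel screen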

| compound | target.entity | readout.units | %Inh |
| --- | --- | --- | --- |
| Clc1ccc(-c2nn3ncccc3c2-c2ccnc(Nc3ccc4c(c3)OCCO4)n2)cc1 | ACVRL1 | % | 4 |
| Nc1n[nH]c2cnc(-c3ccccc3)cc12 | ACVRL1 | % | 0 |
| COc1ccc(-c2coc3ccc(-c4nnc(SCc5ccc(OC)c(C(F)(F)F)c5)o4)cc23)cc1 | ACVRL1 | % | 26 |
| CC(=O)Nc1nc2cnc(Nc3cc(NC(=O)c4cccc(C5(C#N)CC5)c4Cl)ccc3C)nc2s1 | ACVRL1 | % | 0 |
| COc1cc(Nc2nccc(N3CCC(NC(=O)Nc4cccc(C(C)=O)c4)C3)n2)cc(OC)c1OC (stereo not drawn) | ACVRL1 | % | 0 |
| CN(C)Cc1ccc(-c2ccc3c(Nc4ccc(Oc5ccccn5)cc4)ccnc3c2)o1 | ACVRL1 | % | 0 |
| Cl.NC(=O)c1cccc(Nc2nccc(Nc3ccc(Oc4c(Cl)cccc4Cl)c(Cl)c3)n2)c1 | ACVRL1 | % | 7 |
| FC(F)(F)c1ccc(/C=C/c2cncnc2Nc2ccc3[nH]c(Cc4ccccc4)nc3c2)cc1 | ACVRL1 | % | 0 |
| COc1cccc(NC(=O)NC2CCN(c3ccnc(Nc4cc(OC)c(OC)c(OC)c4)n3)C2)c1 (stereo not drawn) | ACVRL1 | % | 0 |

* * *

Tested on: FLT3
run.conditions: concentration: 1 μM, replicates: in singlicate; n = 1
Mark yes only for %Inh values smaller than 30%; exact matches and larger values are no.

| compound | target.entity | classification |
| --- | --- | --- |
| CC(C)c1nc(-c2cccc(NS(=O)(=O)c3c(F)cccc3F)c2F)c(-c2ccnc(Nc3ccc(N4CCOCC4)nc3)n2)s1 | FLT3 | no |
| Cc1cccc(Nc2nc(N[C@H]3CCNC3)ncc2C(N)=O)c1.Cl | FLT3 | no |
| O=C(Nc1cccc(-c2nn3ncccc3c2-c2ccnc(Nc3ccccc3)n2)c1)c1c(F)cccc1F | FLT3 | no |
| C[C@@H](Oc1cc(-n2cnc3cc(-c4ccnc(NCCS(C)(=O)=O)c4)ccc32)sc1C(N)=O)c1ccccc1Cl | FLT3 | no |
| Cn1cc(-c2[nH]c3cc(NC(=O)[C@H](N)C4CCCCC4)cc4c3c2C=NNC4=O)cn1 | FLT3 | no |
| CN(c1ccc(NC(=O)Nc2cc(C(F)(F)F)ccc2F)cc1)c1ccnc(Nc2ccc(S(N)(=O)=O)cc2)n1 | FLT3 | no |
| Cn1cc(-c2ccc3c(c2)CCN3C(=O)Cc2cccc(F)c2)c2c(N)ncnc21 | FLT3 | no |
| Cc1ccc(C(=O)Nc2ccc(Nc3ccnc4cc(-c5nccs5)ccc34)cc2O)cc1.Cl | FLT3 | yes |
| Cc1ccc(S(=O)(=O)Nc2ccc(Nc3nccc(Nc4cccc5[nH]ncc45)n3)cc2)cc1 | FLT3 | yes |
| FC(F)(F)c1ccc(/C=C/c2cncnc2Nc2ccc3[nH]c(Cc4ccccc4)nc3c2)cc1 | FLT3 | yes |
| NCCCC(NC(=O)c1cc(Br)c(-c2ccnc3[nH]ccc23)s1)c1ccccc1.O=C(O)C(F)(F)F.O=C(O)C(F)(F)F (centres unmarked) | FLT3 | no |
| Cc1ccc(C)c(NC(=O)NC2CCN(c3ccnc(Nc4ccc(F)cc4)n3)C2)c1 (centres unmarked) | FLT3 | yes |
| O=C(Nc1n[nH]c2nc(-c3ccc(O)cc3)ccc12)C1CC1 | FLT3 | no |
| CCc1ccc(-c2ccc3c(c2)-c2c(cnn2C)S(=O)(=O)N3C)cc1 | FLT3 | yes |
| CC(=O)N1CCN(c2ccc(Nc3nccc(-c4sc(C(C)C)nc4-c4cccc(NS(=O)(=O)c5cccc(Cl)c5)c4)n3)cn2)CC1 | FLT3 | no |
| c1ccc(-c2cnc3nccnn23)cc1 | FLT3 | no |
| Cc1cccc(NC(=O)Nc2ccc(Oc3ncnc4ccn(C)c34)cc2)c1 | FLT3 | no |
| COc1cccc(-c2ccc3c(NC(=O)C4CC4)n[nH]c3n2)c1 | FLT3 | yes |
| COC(=O)Nc1nc2ccc(Oc3ccc(NC(=O)Nc4cc(C(F)(F)F)ccc4F)cc3)cc2n1C.Cl | FLT3 | no |
| COc1cc(Nc2nccc(N3CCC(NC(=O)Nc4cccc(C(C)=O)c4)C3)n2)cc(OC)c1OC (centres unmarked) | FLT3 | no |

* * *

System: JAK1(JH1domain-catalytic)
run.conditions: concentration: 1 μM, replicates: in singlicate; n = 1
# %Inh annotations

| compound | readout.units | %Inh |
| --- | --- | --- |
| COc1cc(Nc2nccc(-c3c(-c4cccc(NC(=O)c5c(F)cccc5F)c4)nn4ccccc34)n2)cc(OC)c1OC [GSK323521] | % | 5 |
| COc1ccc(Nc2nccc(N3CCC(NC(=O)Nc4cccc(OC)c4)C3)n2)cc1 (centres unmarked) [GSK1379742] | % | 12 |
| COc1cccc(NC(=O)NC2CCN(c3ccnc(Nc4cc(OC)c(OC)c(OC)c4)n3)C2)c1 (centres unmarked) [GSK1379763] | % | 0 |
| c1ccc(Oc2ccc(Nc3ccnc4cc(-c5ccc(CNCCN6CCOCC6)o5)ccc34)cc2)nc1 [GW567145] | % | 5 |
| O=C(Nc1cccc(Oc2ccc3nc(NC(=O)C4CC4)cn3n2)c1)c1ccccc1C(F)(F)F | % | 8 |
| Oc1cc(Nc2ccnc3cc(I)ccc23)ccc1F [GW552771] | % | 4 |
| O=C(Nc1cccc(-c2nn3ncccc3c2-c2ccnc(Nc3ccccc3)n2)c1)c1c(F)cccc1F [GSK198271] | % | 5 |
| CC(=O)Nc1nc2cnc(Nc3cc(NC(=O)c4cccc(C5(C#N)CC5)c4Cl)ccc3C)nc2s1 | % | 17 |
| O=C(NC1CCN(c2ccnc(Nc3ccc(F)cc3)n2)C1)c1cc2ccccc2s1 (centres unmarked) [GSK1379716] | % | 29 |
| Cl.Cl.NCC(NCc1ccc(-c2ccnc3[nH]ccc23)s1)c1ccccc1 (centres unmarked) [GSK1321565] | % | 29 |
| COC(=O)Nc1nc2ccc(Oc3ccc(NC(=O)Nc4cc(C(F)(F)F)ccc4F)cc3)cc2n1C.Cl [GW692089] | % | 3 |
| O=C(Nc1ccccc1F)NC1CCN(c2ccnc(Nc3ccc(F)cc3)n2)CC1 [GSK1379800] | % | 20 |
| Cl.Cl.NCC(C(=O)Nc1cc(Br)c(-c2ccnc3[nH]ccc23)s1)c1ccccc1 (centres unmarked) [GSK1269851] | % | 2 |
| COc1ccc(Nc2nccc(NCCNC(=O)c3cc4ccccc4s3)n2)cc1 [GSK1379896] | % | 5 |
| CCn1c(-c2nonc2N)nc2c(C#CC(C)(C)O)nc(OC[C@H](N)c3ccccc3)cc21 [GSK943949] | % | 19 |
| COc1cccc(-c2ccc3c(NC(=O)C4CC4)n[nH]c3n2)c1 [SB-710903] | % | 9 |
| O=C(Nc1cccc(-c2nn3ccccc3c2-c2ccnc(Nc3cccc(F)c3)n2)c1)c1c(F)ccc(F)c1Cl [GSK357952] | % | 0 |

* * *

System: GCN2(Kin.Dom.2,S808G)
Construct: gene EIF2AK4
run.conditions: concentration: 1 μM, replicates: in singlicate; n = 1
This listing pairs compounds with measured %Inh.

| compound | readout.units | %Inh |
| --- | --- | --- |
| CNC(=O)c1ccccc1Nc1nc(Nc2ccc(N3CCOCC3)cc2)ncc1Cl.Cl | % | 100 |
| CC(=O)Nc1nc2cnc(Nc3cc(NC(=O)c4cccc(C5(C#N)CC5)c4Cl)ccc3C)nc2s1 | % | 19 |
| O=C(O)C(F)(F)F.O=C(O)C(F)(F)F.O=c1[nH]ccc2nc(N[C@@H]3CCCNC3)nc(Nc3ccc(S(=O)(=O)N4CCOCC4)cc3)c12 | % | 100 |
| O=C(Nc1cccc(-c2nn3ccccc3c2-c2ccnc(Nc3cccc(C(F)(F)F)c3)n2)c1)c1c(F)cccc1F | % | 10 |
| CCCCc1nn2ncccc2c1-c1ccnc(Nc2ccc(N3CCN(C)CC3)cc2)n1 | % | 93 |
| CCS(=O)(=O)c1ccc(OC)c(Nc2nccc(-c3c(-c4cccc(NC(=O)c5c(F)cccc5F)c4)nn4ncccc34)n2)c1 | % | 8 |
| COc1ccc(Nc2nccc(NCCNC(=O)c3cc4ccccc4s3)n2)cc1 | % | 3 |
| COc1cccc(NC(=O)NC2CCN(c3ccnc(Nc4cc(OC)c(OC)c(OC)c4)n3)C2)c1 (centres unmarked) | % | 4 |

* * *

System: S6K1
run.conditions: concentration: 1 μM, replicates: in singlicate; n = 1
The compounds listed here are annotated with their %Inh.

| compound | %Inh, % |
| --- | --- |
| CCn1c(-c2nonc2N)nc2c(C#CC(C)(C)O)nc(OC[C@H](N)c3ccccc3)cc21 [GSK943949] | 4 |
| Cc1ccc(C(=O)N2CC[C@@H](O)C2)cc1-n1c(C)cc(OCc2ccc(F)cc2F)c(Br)c1=O | 0 |
| Cl.Cl.NCC(NCc1ccc(-c2ccnc3[nH]ccc23)s1)c1ccccc1 (centres unmarked) [GSK1321565] | 53 |
| CCS(=O)(=O)c1ccc(OC)c(Nc2nccc(-c3c(-c4cccc(NC(=O)c5c(F)cccc5F)c4)nn4ncccc34)n2)c1 [GSK326180] | 6 |
| Oc1cc(Nc2ccnc3cc(I)ccc23)ccc1F [GW552771] | 35 |
| O=C(Nc1cccc(-c2nn3ccccc3c2-c2ccnc(Nc3cccc(C(F)(F)F)c3)n2)c1)c1c(F)cccc1F [GSK292658] | 0 |
| NCCCC(NC(=O)c1cc(Br)c(-c2ccnc3[nH]ccc23)s1)c1ccccc1.O=C(O)C(F)(F)F.O=C(O)C(F)(F)F (centres unmarked) [GSK1287544] | 58 |
| COc1ccc(CNC(=O)NC2CCN(c3ccnc(Nc4ccc(F)cc4)n3)CC2)cc1 [GSK1379788] | 0 |
| Nc1ncc(-c2cccnc2)c2scc(-c3ccc4c(c3)CCN4C(=O)Cc3ccccc3)c12 [GSK683281] | 0 |
| CN1CCN(Cc2cccc(-c3ccc4c(Nc5ccc(Oc6ccccc6)cc5)ccnc4c3)c2)CC1 [GW578342] | 0 |
| CN(C)S(=O)(=O)c1cc(-c2ccc3nccc(-c4cccc(S(N)(=O)=O)c4)c3c2)cnc1N [GSK1669921] | 19 |
| Nc1ncc(-c2ccc3nccc(-c4ccncc4)c3c2)cc1S(=O)(=O)N1CCOCC1 [GSK1627798] | 0 |
| FC(F)(F)c1ccc(/C=C/c2cncnc2Nc2ccc3[nH]c(Cc4ccccc4)nc3c2)cc1 [GW709199] | 0 |
| c1ccc(-c2n[nH]cc2Nc2ccnc3ccccc23)nc1 [GW694077] | 33 |
| COc1cccc(C(=O)Nc2cccc(Oc3ccc4nc(NC(=O)C5CC5)cn4n3)c2)c1 | 0 |
| Nc1n[nH]c2cnc(-c3ccccc3)cc12 [SB-642124] | 10 |
| COc1cc(Nc2nccc(N3CCC(NC(=O)c4cc5ccccc5s4)C3)n2)cc(OC)c1OC (centres unmarked) [GSK1379760] | 17 |
| CCn1c(-c2nonc2N)nc2c(C#CC(C)(C)O)ncc(OCCCCN)c21.O=C(O)C(F)(F)F.O=C(O)C(F)(F)F [GSK507274] | 1 |
| O=c1[nH]cc(-c2ccc(N3CCOCC3)cc2)c2sc(-c3cn[nH]c3)cc12 [GSK2276055] | 0 |
| O=C(Nc1n[nH]c2nc(-c3ccc(O)cc3)ccc12)C1CC1 [SB-710363] | 40 |
